Measured values drawn from patent US11731967B2 for this set.

Record form. Attribute: IC50. Fill in for each entry.
systemName: recombinant PHD-bromodomain module of TRIM33 (Homo sapiens, UniProt Q9UPN9)
Construct: rows headed: TRIM33 modulating activity; unit not given
Sequence (Q9UPN9 1-1127): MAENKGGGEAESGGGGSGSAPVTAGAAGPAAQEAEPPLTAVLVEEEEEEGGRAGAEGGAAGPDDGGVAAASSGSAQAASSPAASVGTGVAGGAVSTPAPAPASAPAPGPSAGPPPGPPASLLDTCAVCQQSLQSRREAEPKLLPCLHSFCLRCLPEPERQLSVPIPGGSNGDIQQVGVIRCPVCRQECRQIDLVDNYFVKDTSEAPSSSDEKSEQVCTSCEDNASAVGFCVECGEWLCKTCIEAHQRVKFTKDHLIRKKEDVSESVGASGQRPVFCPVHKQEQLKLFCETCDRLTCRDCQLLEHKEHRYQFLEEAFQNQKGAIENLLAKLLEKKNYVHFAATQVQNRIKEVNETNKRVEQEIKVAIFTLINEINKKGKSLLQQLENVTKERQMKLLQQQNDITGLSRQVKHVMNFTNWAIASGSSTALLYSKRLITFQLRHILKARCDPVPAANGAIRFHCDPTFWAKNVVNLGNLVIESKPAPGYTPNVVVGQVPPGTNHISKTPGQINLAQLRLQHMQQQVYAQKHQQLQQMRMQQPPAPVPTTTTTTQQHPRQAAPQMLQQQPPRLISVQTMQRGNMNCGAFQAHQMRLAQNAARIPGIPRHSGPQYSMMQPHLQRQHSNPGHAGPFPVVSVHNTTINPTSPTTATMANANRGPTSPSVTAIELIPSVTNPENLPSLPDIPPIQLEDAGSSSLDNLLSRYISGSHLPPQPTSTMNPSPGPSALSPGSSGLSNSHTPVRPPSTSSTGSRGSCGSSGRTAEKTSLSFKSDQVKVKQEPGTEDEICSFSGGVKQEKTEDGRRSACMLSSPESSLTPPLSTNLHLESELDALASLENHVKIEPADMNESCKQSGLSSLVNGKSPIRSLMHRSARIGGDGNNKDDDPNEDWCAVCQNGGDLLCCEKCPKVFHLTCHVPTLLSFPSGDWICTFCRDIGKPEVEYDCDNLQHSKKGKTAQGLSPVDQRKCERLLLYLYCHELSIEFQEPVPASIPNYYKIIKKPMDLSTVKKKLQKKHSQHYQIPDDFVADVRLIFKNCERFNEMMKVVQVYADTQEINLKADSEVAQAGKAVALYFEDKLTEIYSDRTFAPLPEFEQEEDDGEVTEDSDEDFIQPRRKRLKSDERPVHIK
testDetails: AlphaScreen binding assay, TRIM33 with biotinylated H3K9me3K18ac peptide
assaySetup: compounds shown in FIG. 13A (Table 7); read-out: TRIM 33 IC50
Write down the numeric answer in µM and omit the unit.

Note down IC50 recorded for "COCCNc1c(-c2ccco2)nc2ccc(C(=O)OC)cn12"
21.8

Note down IC50 recorded for "CCOC(=O)CNc1c(-c2ccco2)nc2ccc(C(=O)OC)cn12"
10.8

Note down IC50 recorded for "Cc1[nH]cnc1-c1nc2ccccn2c1NCCN1CCOCC1"
3.78

Note down IC50 recorded for "COc1ccc(Nc2c(-c3c[nH]c(C)n3)nc3ccc(Br)cn23)cc1"
0.538

Note down IC50 recorded for "COc1ccc(Nc2c(-c3nc[nH]c3C)nc3ccccn23)cc1"
0.641

Note down IC50 recorded for "CC(C)(C)Nc1c(-c2c(O)ccc3ccccc23)nc2ccccn12"
7.45
